# tgt: T1, recombinant human GPC3 (human, UniProt P51654 25-559, limits assumed)
# T1 construct: also called hGPC3
# assayName: SPR (Biacore), antibody as ligand, recombinant human GPC3 as analyte, 1:1 Langmuir model
Readings of koff for the listed binders
Please reply with the bare figure in s⁻¹ and do not write the unit itself.

Example entries begin here.
binder="LAb19304 (antibody, V domains shown, Mouse monoclonal antibody purified from hybridoma supernatant) VH: QVQLQQSGAELVRPGASVTLSCKASGYTFTAYEMHWVKQTPVHGLEWIGGIDPETGNTAYSQKFKGKATLTADKSSSTAYMEVRSLTSEDSAVYYCSRYYSFAYWGQGTLVTVSA VL: DVLMTQTPLSLPVSLGDQASISCRSSQTIVHSNGNTYLEWYLQKPGQSPKLLIYKVSNRFSGVPDRFSGSGSGTDFTLKISRVEAEDLGVYYCFQVSHVPYTFGGGTKLEIK" recordednumber=0.000138
binder="LAb19309 (antibody, V domains shown, Mouse monoclonal antibody purified from hybridoma supernatant) VH: QVQLQQSGAELVRPGASVTLSCKASGYTFTDYEMHWVKQTPVHGLEWIGGIDPETGNTAYSQKFKGKATLTADKSSSTAYMEVRSLTSEDSAVYYCTRYYSFAYWGQGTLVTVSA VL: DVLMTQTPLSLPVNLGDQASISCRSSQTIVHSNGNTYLEWYLQKPGQSPKLLIYKVSNRFSGVPDRFSGSGSGTDFTLRISRVEAEDLGVYYCFQVSHVPYTFGGGTKLEIK" recordednumber=0.000195
binder="LAb19307 (antibody, V domains shown, Mouse monoclonal antibody purified from hybridoma supernatant) VH: EVQLVESGGDLVKPGGSLKLSCAASGFAFGTYDMSWVRQTPEKRLEWVAYISSGGNSPYYPQTVKGRFTISRDNAKNTLYLQMSSLKSEDTAMYYCARQNIARRGAMDFWGQGASVTVSS VL: DVVLTQSPLSQPVSLGDQASISCTSSQSLLHSNGNTYLHWYLQKPGQSPKLLIYKVSNRFSGVPDRFSGSGSGTDFTLKISRVEAEDLGVYFCSQSTHVPPTFGGGTKLEIK" recordednumber=0.00178
binder="LAb19301 (antibody, V domains shown, Mouse monoclonal antibody purified from hybridoma supernatant) VH: DVQLQESGPDLVKPSQSLSLTCTVTGYSITSGFSWHWIRQFPGHKLEWMGFMQYSGNTNYNPSLKSRISFTRDTSKNQFFLQLKSVTPEDTATYYCARREEGAWFAYWGQGTLVTVSA VL: DVVMTQTPLSLPVSLGDQASISCGSSQSLVHSNGNTYLHWYLQKPGQSPKLLIYKVSNRFSGVPDRFSGSGSGTDFTLKISRVEAEDLGVYFCSQSTHFPFTFGSGTKLEIK" recordednumber=0.00207

We next turn to a different binder, shown below.
Data request: Reported koff for LAb19302 (antibody, V domains shown, Mouse monoclonal antibody purified from hybridoma supernatant) VH: AVQLVESGGGLVRPGGSLKLSCAASGFAFSTYGMSWVRQTPETRLEWVAYISSGGATTYYPDSVKGRFTISRDNAKNTLYLQMSSLKSEDTAMYYCASLSIMIRGWFAYWGQGTLVTVSA VL: DVVMTQTPLSLPVSLGDQASISCRSSQSLVHSNGNTYLHWYLQKPGQSPKVLIYKVSNRFSGVPDRFSGSGSGTDFTLKISRVEAEDLGVYFCSQSTHVPYTFGGGTKLEIK : what is it?
Data returned: 0.00184

Just for reference, patent US20230088461A1 is where these values come from.
